Assay: pH-solubility of perampanel in SBE-β-CD solutions
Format: physicochemical
Conditions: 3% SBE-β-CD solution, aqueous with cosolvent or surfactant or cyclodextrin; 3% SBE-β-CD, pH 5.5
RESULT_TYPE: solubility
Put down the number, then write its unit next to it.

Consider N#Cc1ccccc1-c1cc(-c2ccccn2)cn(-c2ccccc2)c1=O . Its measured solubility is 20 µg/mL

----------
Experiment: pH-solubility of perampanel in SBE-β-CD solutions
Type: physicochemical
Details: 3% SBE-β-CD solution, aqueous with cosolvent or surfactant or cyclodextrin; 3% SBE-β-CD, pH 8
RESULT_TYPE: solubility (µg/mL)
Express your answer in µg/mL, writing the number without its unit.

Consider N#Cc1ccccc1-c1cc(-c2ccccn2)cn(-c2ccccc2)c1=O . Its measured solubility is 30

----------
Experiment: Aqueous solubility of perampanel without solubilizer
Format: physicochemical
Settings: water without solubilizer, aqueous buffer; 22° C., pH 7
RESULT_TYPE: solubility

Consider N#Cc1ccccc1-c1cc(-c2ccccn2)cn(-c2ccccc2)c1=O [perampanel] . Its measured solubility is ~1 µg/mL

----------
Assay: pH-solubility of perampanel in SBE-β-CD solutions
Assay type: physicochemical
Details: 6% SBE-β-CD solution, aqueous with cosolvent or surfactant or cyclodextrin; 6% SBE-β-CD, pH 5.5
RESULT_TYPE: solubility

Consider N#Cc1ccccc1-c1cc(-c2ccccn2)cn(-c2ccccc2)c1=O [perampanel] . Its measured solubility is 0.04 mg/mL

----------
Assay: Aqueous solubility of perampanel without solubilizer
Assay type: physicochemical
Settings: water without solubilizer, aqueous buffer; 22° C., pH 2
RESULT_TYPE: solubility (µg/mL)
Express your answer in µg/mL, writing the number without its unit.

Consider N#Cc1ccccc1-c1cc(-c2ccccn2)cn(-c2ccccc2)c1=O . Its measured solubility is 30
